Tested on: HT-29
Test: Ratio of IC50 for HT29 cells under oxic conditions to hypoxic conditions after 4 hrs
Format: functional, Homo sapiens
Note to self: use 1.0 only for Ratio IC50 readings below 60; a reading exactly at 60 still gets 0.0.

Reference set, count: 8
CCOc1ccc2c(c1)[n+]([O-])c(NCCN(C)C)n[n+]2[O-] | 0.0
CN(C)CCCNc1n[n+]([O-])c2ccccc2[n+]1[O-] | 1.0
CC(C)c1ccc2c(c1)[n+]([O-])c(NCCN1CCOCC1)n[n+]2[O-] | 1.0
COc1ccc2c(c1)[n+]([O-])c(NCCN1C(C)CCCC1C)n[n+]2[O-] (stereo not given) | 1.0
CCc1ccc2c(c1)[n+]([O-])c(NCCN1CCCCC1)n[n+]2[O-] | 0.0
Cc1ccc2c(c1)[n+]([O-])c(NCCN1CCCCC1)n[n+]2[O-] | 1.0
CCN(CC)CCNc1n[n+]([O-])c2ccc(C(C)(C)C)cc2[n+]1[O-] | 1.0
CCOc1ccc2c(c1)[n+]([O-])c(NCCN1CCCCC1)n[n+]2[O-] | 0.0

Moving on to the next compound.
Field: below-cutoff. Rule: recorded Ratio IC50 strictly less than 60. Subject: "[O-][n+]1nc(NCCN2CCCCC2)[n+]([O-])c2ccccc21"
1.0

* * *

Listed below: Ratio IC50 values for each entry.
Test system: HT-29
Assay: Ratio of IC50 for HT29 cells under oxic conditions to hypoxic conditions after 4 hrs
Format: functional, Homo sapiens
// no unit string in output, number only

Examples from the recorded data:
Cc1ccc2c(c1)[n+]([O-])c(N)n[n+]2[O-] | 36
CC1CCCC(C)N1CCNc1n[n+]([O-])c2ccccc2[n+]1[O-] (stereo not drawn) | 15

Read the next record carefully.
I would be grateful if you could share the reported Ratio IC50 for "[O-][n+]1nc(NCCN2CCOCC2)[n+]([O-])c2ccccc21" .
34

* * *

Test: Protein binding in mouse plasma by equilibrium dialysis
Assay type: ADME, cell-free
Conditions: read-out: PPB (converted)
readoutKind: fraction unbound

Cc1ccc2c(c1)[n+]([O-])c(NCCN(C)C)n[n+]2[O-] | 0.04

Attention now shifts to the item below.
Would you mind telling me what fraction unbound value was observed for "CCCN(CCC)CCNc1n[n+]([O-])c2ccccc2[n+]1[O-]" ?
0.023

* * *

Experiment: Solubility in culture medium in presence of 5% fetal calf serum
Format: physicochemical
Details: culture medium with 5% fetal calf serum
Binary call on solubility: class 1 from 30 mM upward, class 0 beneath that.

Please check the record "CC(C)(C)c1ccc2c(c1)[n+]([O-])c(NCCN1CCCCC1)n[n+]2[O-]" and state if its solubility is at or above 30 mM.
class 0

Try this compound next: "CN(C)CCNc1n[n+]([O-])c2ccc(OCC3CC3)cc2[n+]1[O-]"
class 1

Next compound up: "CCCN(CCC)CCNc1n[n+]([O-])c2ccc(Cl)cc2[n+]1[O-]"
class 0

How about this compound: "Cc1ccc2c(c1)[n+]([O-])c(NCCN1CCOCC1)n[n+]2[O-]"
class 1

Same thing, different compound: "CCN(CC)CCNc1n[n+]([O-])c2ccc(C(C)C)cc2[n+]1[O-]"
class 1

Field entry: Cc1ccc2c(c1)[n+]([O-])c(NCCCN1CCC(C#N)C1)n[n+]2[O-] (configuration not stated)
class 1
